Recorded measurements of z-score, one per entry
- Assay overview: adipocyte viability effects, profiling panel, cell-based, 3T3-L1 adipocytes, calcein-AM fluorescence, 48 h, basal (AID 1163); further: test concentration not given here
- Reported conditions: 3T3-L1 adipocytes viability, higher = more signal
Response field accepts a number only; no unit should be typed.

Examples with their reported z-score follow.
Molecule: CC(C)[C@H]1NC(=O)[C@@]23C(=O)N[C@@H](Cc4ccccc4)C2[C@H](C)[C@@]2(C)O[C@H]2C3/C=C/CCC/C=C/CNC(=O)[C@H](Cc2ccccc2)NC1=O (some centres not stated)
z-score: 0.532
--
Molecule: COCCOC(=O)N1C(=O)[C@@]2(c3cc(C#Cc4ccc(OC)cc4)ccc31)[C@H](C(=O)NC[C@H](O)c1ccccc1)[C@H]1C(=O)O[C@H](c3ccccc3)[C@H](c3ccccc3)N1[C@@H]2c1ccc(OCCO)cc1
z-score: 0.55
--
Molecule: NC(=O)[C@H]1[C@@H]2C(=O)O[C@@H](c3ccccc3)[C@@H](c3ccccc3)N2[C@@H](c2ccc(O)cc2)[C@]12C(=O)Nc1ccccc12
z-score: -0.712
--
Molecule: COCCCNC(=O)[C@@]1(c2ccc([N+](=O)[O-])cc2)CC(=O)N(C(C)C)[C@@H]1c1ccc(CO)cc1
z-score: 1.22
--
Molecule: O=C1N(CCS(=O)(=O)c2ccccc2)Cc2ccccc2[C@@H]2OC(c3ccc(OCCCO)cc3)=N[C@]12CCS(=O)(=O)c1ccccc1
z-score: 0.859
--
Molecule: CC(C)OC(=O)CC(=O)CC(O)c1ccc([N+](=O)[O-])cc1 (configuration not stated)
z-score: -0.228

Query :: Give the value of z-score reported for the following: C=C(/C(=C/C[C@@H](OC(C)=O)c1ccc(CO)o1)c1cc(C(=O)OC)ccc1OC)C(C)C
Result :: -0.634

----------
- Assay overview: E. coli DRC41 culture turbidity changes, primary screen, E. coli filamentation inducer project, strain DRC41, OD650, 48 h (AID 1152);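 further: E. coli MC1000 strain DRC41 lacking acrAB efflux pump and sulA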
- Reported conditions: E. coli DRC41 (acrAB sulA), higher = more signal, called active from +8 up or from −8 down
Reported metric: z-score
Provide a numeric answer; units are not to be included.

See these solved cases before continuing.
Compound: [N-]=[N+]=Nc1ccccc1C[C@]1(C(=O)NCc2ccccc2)COC(c2ccc(OCCCO)cc2)=N1
Quantitative readout: 0.325

Compound: C=C(COC)C(=O)CC[C@H](OC(C)=O)c1ccc(OCCO)cc1
Quantitative readout: 1.5

Query :: Give the reported z-score for this compound. [N-]=[N+]=NCc1ccccc1[C@@H]1OC(c2ccc(OCCCO)cc2)=N[C@]1(Cc1ccccc1)C(=O)NCCN1CCOCC1
Result :: 0.745

Query :: Dear colleague, please send me the reported z-score for COC(=O)[C@@]1(Cc2ccc(OC)cc2)[C@H]2c3cc(C(=O)N4CCCC4)n(Cc4ccc(S(C)(=O)=O)cc4)c3C[C@H]2CN1C(=O)c1ccccc1 when you can.
Result :: -1.08

Query :: Identify the reported z-score for the following entry. COCCOC(=O)N1C(=O)[C@@]2(c3cc(C#CCNC(N)=O)ccc31)[C@H](c1ccc(OCCO)cc1)N1[C@H](c3ccccc3)[C@H](c3ccccc3)OC(=O)[C@H]1[C@@H]2C(=O)NC[C@H](O)c1ccccc1
Result :: 0.402

Query :: Please look at this compound and report its z-score: CC1CC/C=C\[C@H]2OC34C=CCN(CCN5CCOCC5)C(=O)[C@H]3N(C(C)CO)C(=O)[C@@H]4C2C(=O)O1 (some centres not stated)
Result :: -0.197

Query :: Please look at this compound and report its z-score: Cc1ccc([C@H]2C(C(=O)O)=C[C@@H](C(C)(C)C)N2S(=O)(=O)c2ccc(C)cc2)cc1
Result :: -1.18

----------
- Assay overview: FRG1 promoter luciferase signal modulators, primary screen, FRG1 inhibition for FSHD, cell-based, C2C12 myotubes, firefly/Renilla luciferase, luminescence (AID 1084)
- Reported conditions: higher = more signal, called active from +8 up or from −8 down
z-score class ranges: category 1 = under -2, category 2 = from -2 up to -0.2, category 3 = -0.2 and over

Past entries and their recorded results:
Molecule: CO[C@H]1O[C@H](CO)[C@@H](OC(=O)Nc2ccc(C#N)cc2)[C@@H]2OC(=O)[C@H](Cc3cccc(Br)c3)C/C=C/C[C@@H](Cc3cccc(Br)c3)C(=O)O[C@@H]12
Label class: category 2
//
Molecule: COc1ccc([Si](C)(C)[C@H]2[C@H](CC(=O)N3Cc4ccccc4C[C@H]3CO)O[C@@]3(C(=O)N(Cc4ccc(N5C(=O)c6cccc7cccc5c67)cc4)c4ccccc43)[C@@H]2C)cc1
Label class: category 1

Now examine the next entry.
Query :: // bin(item) where item = CC(C)C[C@@H]1NC(=O)[C@@H]2C[C@H](C(=O)NCCCCCC[N+](C)(C)C)[C@H](c3cccc(OCCO)c3)N2C1=O
Result :: category 3

----------
z-score overview
- Assay overview: CREB reporter modulators under forskolin, primary screen, cell-based, PC12, CRE-LacZ reporter, forskolin-stimulated (AID 1146);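 further: PC12 cells with 6xCRE LacZ reporter stimulated by forskolin 10 µM; beta-galactosidase reporter signal reflecting CREB driven transcription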
- Reported conditions: luminescence, 4.5 h, higher = more signal, called active from +8 up or from −8 down
Quick one: just the number, no unit, thanks!

Please review the following examples before continuing.
Compound: O=C1C2C=CC(C(O)C=Cc3ccc([N+](=O)[O-])cc3)N(Nc3ccccc3)C2C(=O)N1c1ccccc1 (stereo unspecified)
z-score: -0.148
--
Compound: CCCC=C(CCC)[C@@H](NS(=O)(=O)c1cccc2cccnc12)c1ccc(-c2ccccc2)cc1
z-score: 0.415

Query :: Give reported z-score value for COCCOC(=O)N1C(=O)[C@@]2(c3cc(C#Cc4ccc(OC)cc4)ccc31)[C@H](C(=O)NC[C@H](O)c1ccccc1)[C@H]1C(=O)O[C@H](c3ccccc3)[C@H](c3ccccc3)N1[C@@H]2c1ccc(OCCO)cc1
Result :: -0.544

Query :: Look up and report measured z-score for this entry: C=CCC(OC(C)=O)[C@@H]1[C@@H](N(Cc2cccc3ccccc23)C(=O)c2ccc(-c3ccccc3)cc2)c2cc(OCCCO)ccc2N1C(=O)c1ccc(-c2ccccc2)cc1 (stereo partly specified)
Result :: 0.859

Query :: Please report the measured z-score for COc1ccc([Si](C)(C)[C@@H]2[C@@H](CC(=O)N3Cc4ccccc4C[C@H]3CO)O[C@]3(C(=O)N(c4ccccc4)c4ccccc43)[C@H]2C)cc1
Result :: 0.931

Query :: Check the records and state z-score for COc1cc(NN2C(C(O)C3CCCCC3)C=CC3C(=O)N(c4ccccc4)C(=O)C32)cc(OC)c1OC (stereo unspecified)
Result :: -0.0678

----------
- Assay overview: yeast growth modulation, basal conditions, primary screen, YJM789 clinical isolate, OD600, 24 h (AID 1089);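 further: growth of clinical yeast isolate S. cerevisiae YJM 789 seeded 1000 cells per well; test concentration not given here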
- Reported conditions: S. cerevisiae YJM789 growth, higher = more signal, called active from +8 up or from −8 down
Using z-score as the sorting value, the categories are low band: < -0.6; middle band: ≥ -0.6 and < 0.2; high band: ≥ 0.2

Compound: C=C(/C(=C/C[C@@H](OC(C)=O)c1ccc(OCCO)cc1)c1cc(C(=O)OC)ccc1OC)C(C)C
Label class: middle band

Compound: [N-]=[N+]=NCc1ccccc1[C@@H]1OC(c2ccc(OCCCO)cc2)=N[C@]1(Cc1ccccc1N=[N+]=[N-])C(=O)NCCN1CCOCC1
Label class: middle band

Compound: COCCOC(=O)N1C(=O)[C@@]2(c3cc(C#CCC(C(=O)OC)C(=O)OC)ccc31)[C@H](c1ccc(OCCO)cc1)N1[C@H](c3ccccc3)[C@H](c3ccccc3)OC(=O)[C@H]1[C@@H]2C(=O)Nc1nc2ccccc2s1
Label class: high band

Compound: [N-]=[N+]=Nc1ccccc1C[C@]1(C(=O)O)N=C(c2ccc(OCCCO)cc2)O[C@H]1c1ccccc1N=[N+]=[N-]
Label class: middle band

Compound: C#C[C@@H](CC)O[Si](C#CCCCC#N)(C(C)C)C(C)C
Label class: low band

Query :: Class? Entry: C=C[C@@H](OC)[C@H](OC(=O)Nc1ccc(OC)cc1)c1ccc(OC)c(O)c1
Result :: high band

Query :: Tag the class for C=CCC(OC(C)=O)[C@@H]1[C@@H](N(Cc2cccc3ccccc23)C(=O)Cc2ccc(F)cc2)c2cc(OCCCO)ccc2N1C(=O)c1ccc(-c2ccccc2)cc1 (some centres not stated)
Result :: middle band

Query :: Textbook exercise: identify the category of the compound given here, COc1cc(NN2C(C(O)c3cc(OC)c(OC)c(OC)c3)C=CC3C(=O)N(c4ccccc4)C(=O)C32)cc(OC)c1OC (configuration not stated) , according to its measured value.
Result :: high band

Query :: Could you place CC1CC/C=C\[C@H]2OC34C=CCN(CCN5CCOCC5)C(=O)[C@H]3N(C(C)CO)C(=O)[C@@H]4C2C(=O)O1 (some centres not stated) in its proper category? Many thanks.
Result :: middle band

Query :: Note: place this compound into its band. Item: COc1ccc(C#Cc2ccc3c(c2)[C@]2(C(=O)N3)[C@H](c3ccc(OCCO)cc3)N3[C@H](c4ccccc4)[C@H](c4ccccc4)OC(=O)[C@H]3[C@@H]2C(=O)N2CCc3cc(OC)c(OC)cc3C2)cc1
Result :: high band

Query :: Note: place this compound into its band. Item: COc1ccc([Si](C)(C)[C@H]2[C@H](CC(=O)N3CCC[C@H]3CO)O[C@@]3(C(=O)N(Cc4ccc(N5CCC5=O)cc4)c4ccccc43)[C@@H]2C)cc1
Result :: low band

Query :: Category of Cc1ccc(S[C@]2(C(=O)NC(C)C)CC(=O)N(Cc3ccccc3Cl)[C@@H]2c2ccc(CO)cc2)cc1 , please.
Result :: low band
